Source of measurements: patent US20260258048A1

tested on: IL-17A-induced G-CSF production in human normal keratinocyte (NHK); test: NHK assay: IL-17A-induced G-CSF production in normal human keratinocytes; type: cell-based; settings: Homo sapiens, Keratinocyte, 24 h, IL-17A 5 ng/mL, class of the average IC50 where tested more than once
pIC50: −log10 of the molar value.
Property: pIC50; scope: individual compounds

[
  {
    "COMPOUND": "C[C@H]1CNC(=O)[C@@H]1Cc1cnn2cc([C@@H](NC(=O)c3nonc3C3CC3)C3CCC(F)(F)CC3)nc2c1 (relative stereo) [Example 87]",
    "pIC50": "< 5.40"
  },
  {
    "COMPOUND": "O=C(N[C@H](c1cn2ncc([C@H]3C[C@]34C[C@@H](C(F)(F)F)NC4=O)cc2n1)C1CCC(F)(F)CC1)c1nonc1C1CC1 (single isomer, unassigned) [Example 40]",
    "pIC50": "< 5.40"
  },
  {
    "COMPOUND": "O=C(N[C@H](c1cn2ncc(C[C@]34CC[C@@H](C3)NC4=O)cc2n1)C1CCC(F)(F)CC1)c1nonc1C1CC1 (single isomer, unassigned) [Example 18]",
    "pIC50": "5.40 to 6.40"
  },
  {
    "COMPOUND": "C[C@H]1C[C@@H](Cc2cnn3cc([C@@H](NC(=O)c4nonc4C4CC4)C4CCC(F)(F)CC4)nc3c2)C(=O)N1 (relative stereo) [Example 82]",
    "pIC50": "< 5.40"
  },
  {
    "COMPOUND": "O=C(N[C@H](c1cn2ncc(C[C@@H]3CC[C@H](C(F)(F)F)NC3=O)cc2n1)C1CCC(F)(F)CC1)c1nonc1C1CC1 (relative stereo) [Example 31]",
    "pIC50": "> 6.40"
  },
  {
    "COMPOUND": "N#CCC1(Cc2cnn3cc([C@@H](NC(=O)c4nonc4C4CC4)C4CCC(F)(F)CC4)nc3c2)C[C@@H](C(F)(F)F)NC1=O (single isomer, unassigned) [Example 104]",
    "pIC50": "> 6.40"
  },
  {
    "COMPOUND": "O=C(N[C@H](c1cn2ncc(C[C@H]3C(=O)NCC[C@H]3C(F)(F)F)cc2n1)C1CCC(F)(F)CC1)c1nonc1C1CC1 (relative stereo) [Example 44]",
    "pIC50": "< 5.40"
  },
  {
    "COMPOUND": "Cc1nonc1C(=O)N[C@H](c1cn2ncc(C[C@@H]3CC[C@H](C(F)(F)F)NC3=O)cc2n1)C1CCC(F)(F)CC1 (relative stereo) [Example 48]",
    "pIC50": "< 5.40"
  },
  {
    "COMPOUND": "CC(C)n1nccc1C(=O)N[C@H](c1cn2ncc(C[C@H]3C[C@@H](C(F)(F)F)NC3=O)cc2n1)C1CCC(F)(F)CC1 [Example 51]",
    "pIC50": "> 6.40"
  },
  {
    "COMPOUND": "C[C@@]1(C(F)(F)F)CC(Cc2cnn3cc([C@@H](NC(=O)c4nonc4C4CC4)C4CCC(F)(F)CC4)nc3c2)C(=O)N1 (single isomer, unassigned) [Example 55]",
    "pIC50": "> 6.40"
  },
  {
    "COMPOUND": "CC(C)(CC[C@H](NC(=O)c1nonc1C1CC1)c1cn2ncc([C@@H](O)[C@@H]3C[C@@H](C(F)(F)F)NC3=O)cc2n1)C(F)(F)F (relative stereo) [Example 67]",
    "pIC50": "< 5.40"
  },
  {
    "COMPOUND": "CC[C@@H]1C[C@H](Cc2cnn3cc([C@@H](NC(=O)c4nonc4C4CC4)C4CCC(F)(F)CC4)nc3c2)C(=O)N1 (relative stereo) [Example 89]",
    "pIC50": "< 5.40"
  },
  {
    "COMPOUND": "O=C(N[C@H](c1cn2ncc(C[C@H]3C[C@H](C(F)(F)F)NC3=O)cc2n1)C1CCC(F)(F)CC1)c1nonc1C1CC1 (relative stereo) [Example 69]",
    "pIC50": "5.40 to 6.40"
  },
  {
    "COMPOUND": "COC[C@]1(Cc2cnn3cc([C@@H](NC(=O)c4nonc4C4CC4)C4CCC(F)(F)CC4)nc3c2)C[C@@H](C(F)(F)F)NC1=O (single isomer, unassigned) [Example 99]",
    "pIC50": "> 6.40"
  },
  {
    "COMPOUND": "CC[C@@H]1C[C@@H](Cc2cnn3cc([C@@H](NC(=O)c4nonc4C4CC4)C4CCC(F)(F)CC4)nc3c2)C(=O)N1 (relative stereo) [Example 90]",
    "pIC50": "> 6.40"
  },
  {
    "COMPOUND": "O=C(N[C@H](c1cn2ncc(C[C@H]3C[C@H](C(F)(F)F)CNC3=O)cc2n1)C1CCC(F)(F)CC1)c1nonc1C1CC1 (relative stereo) [Example 34]",
    "pIC50": "< 5.40"
  },
  {
    "COMPOUND": "CC(C)[C@H]1C[C@@H](Cc2cnn3cc([C@@H](NC(=O)c4nonc4C4CC4)C4CCC(F)(F)CC4)nc3c2)C(=O)N1 (relative stereo) [Example 94]",
    "pIC50": "> 6.40"
  },
  {
    "COMPOUND": "O=C(N[C@H](c1cn2ncc(C(O)C3CC(C(F)(F)F)NC3=O)cc2n1)C1CCC(F)(F)CC1)c1nonc1C1CC1 (stereo partly shown) [Example 61]",
    "pIC50": "> 6.40"
  },
  {
    "COMPOUND": "Cc1nonc1C(=O)N[C@H](c1cn2ncc(CC3(CN(C)C)C[C@@H](C(F)(F)F)NC3=O)cc2n1)C1CCC(F)(F)CC1 (single isomer, unassigned) [Example 105]",
    "pIC50": "> 6.40"
  },
  {
    "COMPOUND": "C[C@H](c1cnn2cc([C@@H](NC(=O)c3nonc3C3CC3)C3CCC(F)(F)CC3)nc2c1)[C@H]1C[C@@H](C(F)(F)F)NC1=O (relative stereo) [Example 79]",
    "pIC50": "> 6.40"
  },
  {
    "COMPOUND": "CC(C)(CC[C@H](NC(=O)c1nonc1C1CC1)c1cn2ncc([C@@H](O)[C@H]3C[C@@H](C(F)(F)F)NC3=O)cc2n1)C(F)(F)F (relative stereo) [Example 66]",
    "pIC50": "5.40 to 6.40"
  },
  {
    "COMPOUND": "O=C(N[C@H](c1cn2ncc(C[C@H]3C[C@@H](C(F)(F)F)CNC3=O)cc2n1)C1CCC(F)(F)CC1)c1nonc1C1CC1 (relative stereo) [Example 33]",
    "pIC50": "5.40 to 6.40"
  }
]
